Listed below: binding signal values for each entry.
Biological target: T1, RBFOX1 RRM (Homo sapiens, UniProt Q9NWB1 109-208)
T1 sequence: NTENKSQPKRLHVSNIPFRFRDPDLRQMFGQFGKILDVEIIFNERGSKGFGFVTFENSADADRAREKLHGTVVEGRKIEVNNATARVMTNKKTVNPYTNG
Assay: EMSA; HiTS-Eq, 1 nM pool, 10 min; buffer printed only for the single-RNA assays: 10 mM Tris pH 7.5, 150 mM NaCl, 3.4 mM EDTA, 0.001% NP-40, 30 C
Settings: tags: His6 N-terminal (pET28a); label: 5' 32P
Whole data set: some 16,000 sequences, median “ka relative to ugcaugu” near 0.0091, cut for the highest 2% near 0.032. What follows is part of a selection rich in the highest values, with near analogues and random picks from the rest.

Below, each entry is followed by its recorded binding signal result.
binder	binding signal
UGGAGGC (DNA:RNA) RNA: GGGAGACCGGAAUUCAGAUUGUCCUGGAGGCUUAAAUCCCGUCGUAGCCACCA DNA 1: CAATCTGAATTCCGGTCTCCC DNA 2: TGGTGGCTACGACGGGATT	0.0186 KA relative to UGCAUGU
GUGGUCC (DNA:RNA) RNA: GGGAGACCGGAAUUCAGAUUGUCCGUGGUCCUUAAAUCCCGUCGUAGCCACCA DNA 1: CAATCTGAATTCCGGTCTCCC DNA 2: TGGTGGCTACGACGGGATT	0.0226 KA relative to UGCAUGU
UGGAUUC (DNA:RNA) RNA: GGGAGACCGGAAUUCAGAUUGUCCUGGAUUCUUAAAUCCCGUCGUAGCCACCA DNA 1: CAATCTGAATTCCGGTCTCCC DNA 2: TGGTGGCTACGACGGGATT	0.0192 KA relative to UGCAUGU
GUCCUUG (DNA:RNA) RNA: GGGAGACCGGAAUUCAGAUUGUCCGUCCUUGUUAAAUCCCGUCGUAGCCACCA DNA 1: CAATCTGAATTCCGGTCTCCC DNA 2: TGGTGGCTACGACGGGATT	0.0114 KA relative to UGCAUGU
UUGUUCG (DNA:RNA) RNA: GGGAGACCGGAAUUCAGAUUGUCCUUGUUCGUUAAAUCCCGUCGUAGCCACCA DNA 1: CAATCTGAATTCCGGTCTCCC DNA 2: TGGTGGCTACGACGGGATT	0.0364 KA relative to UGCAUGU

Prompt: What value of binding signal has been recorded for this entry: UCCUGGA (DNA:RNA) RNA: GGGAGACCGGAAUUCAGAUUGUCCUCCUGGAUUAAAUCCCGUCGUAGCCACCA DNA 1: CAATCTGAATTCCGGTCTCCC DNA 2: TGGTGGCTACGACGGGATT
Completion: 0.00715 KA relative to UGCAUGU

Prompt: UGGAAUC (DNA:RNA) RNA: GGGAGACCGGAAUUCAGAUUGUCCUGGAAUCUUAAAUCCCGUCGUAGCCACCA DNA 1: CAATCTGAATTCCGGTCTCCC DNA 2: TGGTGGCTACGACGGGATT ?
Completion: 0.0233 KA relative to UGCAUGU

Prompt: GGCCUUG (DNA:RNA) RNA: GGGAGACCGGAAUUCAGAUUGUCCGGCCUUGUUAAAUCCCGUCGUAGCCACCA DNA 1: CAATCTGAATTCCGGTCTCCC DNA 2: TGGTGGCTACGACGGGATT ?
Completion: 0.0328 KA relative to UGCAUGU

Prompt: UUGGUCG (DNA:RNA) RNA: GGGAGACCGGAAUUCAGAUUGUCCUUGGUCGUUAAAUCCCGUCGUAGCCACCA DNA 1: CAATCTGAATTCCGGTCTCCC DNA 2: TGGTGGCTACGACGGGATT ?
Completion: 0.0376 KA relative to UGCAUGU
